- Test system: ulcer
- assayDetails: Pharmacological Test 1: pylorus-ligation ulcer in fasted rats, drug intraduodenal, ulcer area after 8 h
- Type: in vivo, STD Wistar-strain male rats
- conditionContext: Rattus norvegicus, pylorus ligated, n=15 rats, read-out: Percent inhibition (ulcer area)
measuredEndpoint: inhibition in vivo at 300 mg/kg (%)

> print(dat)
                                   compound  reportedmeasurement
1  CC(C)=CCC/C(C)=C/CC/C(C)=C/CC/C(C)=C/CCC(=O)N1CCN(CC=C(C)C)CC1                   64
2  CC(C)=CCCC(C)=CCCC(C)=CCCC(=O)N1CCN(C)CC1 [Comparative compound of formula (A)-1, reference compound]                 53.3
3  CC(C)=CCC/C(C)=C/CC/C(C)=C/CC/C(C)=C/CCC(=O)N1CCNCC1                 68.2

---

Listed here are compounds together with their documented inhibition in vivo at 300 mg/kg.
- Test system: ulcer
- assayDetails: Pharmacological Test 1: pylorus-ligation ulcer in fasted rats, drug intraduodenal, ulcer area after 8 h
- Type: in vivo, STD Wistar-strain male rats
- conditionContext: Rattus norvegicus, pylorus ligated, n=15 rats, read-out: Percent inhibition (ulcer area)
Where a name gives a salt, the structure may show the parent alone.
measuredEndpoint: inhibition in vivo at 300 mg/kg

compound	reportedMeasurement
CC1(C)[C@@H](OC(=O)CCC(=O)O)CC[C@]2(C)[C@H]3C(=O)C=C4[C@@H]5C[C@@](C)(C(=O)O)CC[C@]5(C)CC[C@@]4(C)[C@]3(C)CC[C@@H]12 [Carbenoxolone sodium, succinate, disodium salt, reference compound]	60.5%
CC(C)=CCCC(C)=CCCC(C)=CCCC(=O)OC/C=C(\C)CCC=C(C)C [Gefarnate, geranyl farnesylacetate, reference compound]	30%
CCCCN1CCN(C(=O)CC/C=C(\C)CC/C=C(\C)CC/C=C(\C)CCC=C(C)C)CC1	66.5%
CC(C)=CCC/C(C)=C/CC/C(C)=C/CC/C(C)=C/CCC(=O)N1C(C)CNCC1C (stereo not shown)	80%
CC(C)=CCC/C(C)=C/CC/C(C)=C/CC/C(C)=C/CCC(=O)N1CCN(Cc2ccccc2)CC1	64.9%
CCCCCN1CCN(C(=O)CC/C=C(\C)CC/C=C(\C)CC/C=C(\C)CCC=C(C)C)CC1	67.3%
CCC1CN(C(=O)CCC=C(C)CCC=C(C)CCC=C(C)CCC=C(C)C)CCN1 (stereo not shown)	71.5%
